biological target: Delta-type opioid receptor (Homo sapiens, UniProt P41143); assay: Binding affinity human DOR expressed in CHO cells assessed as inhibition constant by radio ligand binding assay; assay type: cell-based
Sequence (P41143 whole entry): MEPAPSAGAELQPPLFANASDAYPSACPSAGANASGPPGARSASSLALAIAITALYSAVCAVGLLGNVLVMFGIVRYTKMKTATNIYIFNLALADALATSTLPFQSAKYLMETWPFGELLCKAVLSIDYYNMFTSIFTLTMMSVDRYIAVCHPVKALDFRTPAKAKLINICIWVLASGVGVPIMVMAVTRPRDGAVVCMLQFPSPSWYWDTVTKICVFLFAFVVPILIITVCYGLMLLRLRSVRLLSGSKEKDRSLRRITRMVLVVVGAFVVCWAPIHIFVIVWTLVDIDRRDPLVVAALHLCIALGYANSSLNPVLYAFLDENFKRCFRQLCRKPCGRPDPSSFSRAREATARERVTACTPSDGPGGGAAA
experimental-endpoint: pKi
In plain terms, pKi is the concentration in mol/L turned into minus its base-10 logarithm.

QUERY: Dear colleague, I am looking for the recorded pKi of the following molecule: `CN1CC[C@]23c4c5ccc(O)c4O[C@H]2C(=O)CC[C@@]3(OCCCc2ccccc2)[C@H]1C5`
RESULT: 9.89

* * *

biological target: Kappa-type opioid receptor (Homo sapiens, UniProt P41145); assay: Binding affinity to human recombinant KOR assessed as inhibition constant
Sequence (P41145 whole entry): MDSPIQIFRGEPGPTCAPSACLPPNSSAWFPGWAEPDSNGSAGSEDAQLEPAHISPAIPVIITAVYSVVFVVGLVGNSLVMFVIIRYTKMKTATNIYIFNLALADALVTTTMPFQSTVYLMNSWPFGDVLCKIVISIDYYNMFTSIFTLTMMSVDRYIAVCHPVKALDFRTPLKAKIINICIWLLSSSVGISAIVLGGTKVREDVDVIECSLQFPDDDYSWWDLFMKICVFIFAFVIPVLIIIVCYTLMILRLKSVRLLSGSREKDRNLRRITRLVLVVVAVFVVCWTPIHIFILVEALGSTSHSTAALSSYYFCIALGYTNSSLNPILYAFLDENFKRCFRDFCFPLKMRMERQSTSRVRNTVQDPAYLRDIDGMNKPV
experimental-endpoint: pKi
Formally, pKi is defined as -log10 of the concentration c, with c in mol/L.

QUERY: Item `CN(C(=O)C(c1ccccc1)c1ccccc1)[C@H](CN1CC[C@H](O)C1)c1ccccc1` has what recorded pKi?
RESULT: 8.25

* * *

target: UniProtKB P35372; experiment: Agonist activity at human MOR expressed in CHO-K1 cells assessed as inhibition of forskolin-stimulated cAMP accumulation incubated for 45 mins by cAMP HTRF assay
Sequence (P35372 whole entry): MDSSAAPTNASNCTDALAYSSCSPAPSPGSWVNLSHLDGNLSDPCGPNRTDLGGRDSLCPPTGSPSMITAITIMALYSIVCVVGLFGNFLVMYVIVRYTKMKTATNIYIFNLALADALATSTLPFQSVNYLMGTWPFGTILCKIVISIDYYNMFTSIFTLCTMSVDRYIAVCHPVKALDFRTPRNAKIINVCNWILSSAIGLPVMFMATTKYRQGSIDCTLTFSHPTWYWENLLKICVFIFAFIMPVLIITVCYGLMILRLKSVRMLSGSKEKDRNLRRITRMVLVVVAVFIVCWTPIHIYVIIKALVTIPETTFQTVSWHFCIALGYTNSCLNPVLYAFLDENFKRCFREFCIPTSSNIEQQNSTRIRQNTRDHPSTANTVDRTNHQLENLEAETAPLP
experimental-endpoint: EC50
Just so you know, I need the unit written after the number.

QUERY: Give the measured EC50 of `COC(=O)[C@@H]1C[C@H](OC(=O)C2=Cc3ccccc3C2)C(=O)[C@H]2[C@@]1(C)CC[C@H]1C(=O)O[C@H](c3ccoc3)C[C@]21C` .
RESULT: 49.5 nM

* * *

target: Kappa-type opioid receptor (Homo sapiens, UniProt P41145); experiment: Agonist activity at wild type human KOR receptor expressed in CHO cells assessed as stimulation of [35S]GTPgammaS binding measured after 30 mins by scintillation counting assay; type: functional, cell-based
experimental-endpoint: pEC50
Scale note: pEC50 = -log10(concentration in M).

QUERY: Consider the molecule `O=C(O[C@@H]1[C@@H]2[C@H]3C[C@@H](C[C@H]2C(=O)O[C@H]1c1ccoc1)OC3=O)c1ccccc1` and give its measured pEC50.
RESULT: 8.70

Cited source: ChEMBL document CHEMBL5360528
